Reference source for all entries: ChEMBL document CHEMBL5058577

Test system: U2OS
PROCEDURE_DETAILS: Multiplex assay against U2OS
Format: toxicity, cell-based
APPLIED_CONDITIONS: human, 12 h, 10 µM, compound concentration 10 uM, replicate 2
Non-standard residues stand in square brackets, D forms with d. Residues, ends and D or L forms follow the SMILES beside them.
ENDPOINT_LABEL: Population Mitochondria Different-Phenotype (%)

MOLECULE | MEASUREMENT
CC(C)C[C@@H]1NC(=O)[C@@H](C(C)C)NC(=O)[C@@H]2CCCN2C(=O)[C@@H](CC(=O)O)NC(=O)[C@@H](Cc2c[nH]c3ccccc23)NC1=O [BQ-123] (cyclo(L[dW][dD]P[dV])) | 4
CN1CCC(C(=O)c2cccc(NC(=O)c3c(F)cc(F)cc3F)n2)CC1 | 18
O=c1ccc2ccc(OCCCCN3CCN(c4cccc5sccc45)CC3)cc2[nH]1 | 90
COc1cc2nc(N3CCN(C(=O)COc4c(OC)cccc4C(C)C)CC3)nc(N)c2cc1OC.Cl.Cl | 65
O=C(NCCNCC(O)COc1ccc(O)cc1)N1CCOCC1.O=C(NCCNCC(O)COc1ccc(O)cc1)N1CCOCC1.O=C(O)/C=C/C(=O)O (stereo not given) [XAMOTEROL FUMARATE] | 3

====

System: Fibroblast
PROCEDURE_DETAILS: Multiplex assay against human fibroblast
Assay type: toxicity, cell-based
APPLIED_CONDITIONS: 24 h, 1 µM, compound concentration 1 uM, replicate 2

MOLECULE | UNIT_ANNOTATION | Population Normal (%)
Cc1sc2c(c1C)C(c1ccc(Cl)cc1)=N[C@H](CC(=O)OC(C)(C)C)c1nnc(C)n1-2 | % | 93
COc1ccc2c(c1OCc1ccccc1)C[C@@H](C(=O)O)N(C(=O)C(c1ccccc1)c1ccccc1)C2 | % | 97
CCn1c(-c2nc3cc(C(=O)N4CCCC(N)C4)ccc3n2C)cc2ccccc21.Cl (stereo not drawn) | % | 90

====

System: U2OS
PROCEDURE_DETAILS: Multiplex assay against U2OS
Format: toxicity, cell-based
APPLIED_CONDITIONS: human, 24 h, 10 µM, compound concentration 10 uM, replicate 2
Recorded Population Fragmented Nuclei (%), one value per entry.
ENDPOINT_LABEL: Population Fragmented Nuclei (%)

MOLECULE | MEASUREMENT
CN1CCC(C(=O)c2cccc(NC(=O)c3c(F)cc(F)cc3F)n2)CC1 | 15
Cc1nn(C)c2nc(NNC(=O)Nc3cc(Cl)nc(Cl)c3)cc(C(C)C)c12 | 16
CN1CCN2c3ccccc3Cc3ccccc3C2C1.Cl (centres undefined) [MIANSERIN HYDROCHLORIDE] | 13
CC(C)(O)C(=O)N1CCN(c2ccc(C(F)(F)F)c(C3=C(c4c[nH]c5ccccc45)C(=O)NC3=O)c2)CC1 | 16
O=C(NCCNCC(O)COc1ccc(O)cc1)N1CCOCC1.O=C(NCCNCC(O)COc1ccc(O)cc1)N1CCOCC1.O=C(O)/C=C/C(=O)O (centres undefined) [XAMOTEROL FUMARATE] | 16
Cc1sc2c(c1C)C(c1ccc(Cl)cc1)=N[C@H](CC(=O)OC(C)(C)C)c1nnc(C)n1-2 | 24
S=C(NCCCc1c[nH]cn1)NCCCN(Cc1ccc(Cl)c(Cl)c1)c1ccc(Br)cn1 | 29
Cc1cc(=O)n(C)c2cc(N3C(=O)CC[C@H](NS(=O)(=O)CC(C)C)[C@H]3c3ccc(Cl)cc3)ccc12 | 26
COc1c(Nc2ccc(S(C)(=O)=O)nc2C)ncnc1OC1CCN(C(=O)OC(C)C)CC1 | 11
